Provenance of the data: paper PMC11053489

# Test system: Caco-2 cells

compound | CC50
O=c1nc(NO)ccn1[C@@H]1O[C@H](CO)[C@@H](O)[C@H]1O [NHC, β-D-N4-hydroxycytidine] | > 100 µM

* * *

# Test system: primary human peripheral blood mononuclear cells (PBM)
reported_metric: CC50 (µM)

compound | quantitative_readout
O=c1nc(NO)ccn1[C@@H]1O[C@H](CO)[C@@H](O)[C@H]1O [NHC, β-D-N4-hydroxycytidine] | 59.8

* * *

# test_description: MTS cytotoxicity assay, Huh-7 cells
# reported_conditions: human
reported_metric: CC50 at 4 days (µM)

molecule | reported_metric | value_comparator | quantitative_readout
CC(C)OC(=O)C(C)(C)Oc1ccc(C(=O)c2ccc(Cl)cc2)cc1 [Fenofibrate] | CC50 at 4 days | > | 100
Cc1cccc(Nc2ccccc2C(=O)O)c1C | CC50 at 4 days | > | 100
COCCCC/C(=N\OCCN)c1ccc(C(F)(F)F)cc1 [Fluvoxamine (maleate)] | CC50 at 4 days | = | 36.7
Cc1ccc(-c2cc(C(F)(F)F)nn2-c2ccc(S(N)(=O)=O)cc2)cc1 | CC50 at 4 days | = | 31.1
